# Assay Target: SMARCA4-HiBiT HeLa cells (protein which is expressed from the SMARCA4 gene) (Homo sapiens)
# Construct: protein which is expressed from the SMARCA2 and SMARCA4 genes; host or cells: HeLa (SMARCA4-HiBiT engineered line)
# Sequence (P51532 whole entry): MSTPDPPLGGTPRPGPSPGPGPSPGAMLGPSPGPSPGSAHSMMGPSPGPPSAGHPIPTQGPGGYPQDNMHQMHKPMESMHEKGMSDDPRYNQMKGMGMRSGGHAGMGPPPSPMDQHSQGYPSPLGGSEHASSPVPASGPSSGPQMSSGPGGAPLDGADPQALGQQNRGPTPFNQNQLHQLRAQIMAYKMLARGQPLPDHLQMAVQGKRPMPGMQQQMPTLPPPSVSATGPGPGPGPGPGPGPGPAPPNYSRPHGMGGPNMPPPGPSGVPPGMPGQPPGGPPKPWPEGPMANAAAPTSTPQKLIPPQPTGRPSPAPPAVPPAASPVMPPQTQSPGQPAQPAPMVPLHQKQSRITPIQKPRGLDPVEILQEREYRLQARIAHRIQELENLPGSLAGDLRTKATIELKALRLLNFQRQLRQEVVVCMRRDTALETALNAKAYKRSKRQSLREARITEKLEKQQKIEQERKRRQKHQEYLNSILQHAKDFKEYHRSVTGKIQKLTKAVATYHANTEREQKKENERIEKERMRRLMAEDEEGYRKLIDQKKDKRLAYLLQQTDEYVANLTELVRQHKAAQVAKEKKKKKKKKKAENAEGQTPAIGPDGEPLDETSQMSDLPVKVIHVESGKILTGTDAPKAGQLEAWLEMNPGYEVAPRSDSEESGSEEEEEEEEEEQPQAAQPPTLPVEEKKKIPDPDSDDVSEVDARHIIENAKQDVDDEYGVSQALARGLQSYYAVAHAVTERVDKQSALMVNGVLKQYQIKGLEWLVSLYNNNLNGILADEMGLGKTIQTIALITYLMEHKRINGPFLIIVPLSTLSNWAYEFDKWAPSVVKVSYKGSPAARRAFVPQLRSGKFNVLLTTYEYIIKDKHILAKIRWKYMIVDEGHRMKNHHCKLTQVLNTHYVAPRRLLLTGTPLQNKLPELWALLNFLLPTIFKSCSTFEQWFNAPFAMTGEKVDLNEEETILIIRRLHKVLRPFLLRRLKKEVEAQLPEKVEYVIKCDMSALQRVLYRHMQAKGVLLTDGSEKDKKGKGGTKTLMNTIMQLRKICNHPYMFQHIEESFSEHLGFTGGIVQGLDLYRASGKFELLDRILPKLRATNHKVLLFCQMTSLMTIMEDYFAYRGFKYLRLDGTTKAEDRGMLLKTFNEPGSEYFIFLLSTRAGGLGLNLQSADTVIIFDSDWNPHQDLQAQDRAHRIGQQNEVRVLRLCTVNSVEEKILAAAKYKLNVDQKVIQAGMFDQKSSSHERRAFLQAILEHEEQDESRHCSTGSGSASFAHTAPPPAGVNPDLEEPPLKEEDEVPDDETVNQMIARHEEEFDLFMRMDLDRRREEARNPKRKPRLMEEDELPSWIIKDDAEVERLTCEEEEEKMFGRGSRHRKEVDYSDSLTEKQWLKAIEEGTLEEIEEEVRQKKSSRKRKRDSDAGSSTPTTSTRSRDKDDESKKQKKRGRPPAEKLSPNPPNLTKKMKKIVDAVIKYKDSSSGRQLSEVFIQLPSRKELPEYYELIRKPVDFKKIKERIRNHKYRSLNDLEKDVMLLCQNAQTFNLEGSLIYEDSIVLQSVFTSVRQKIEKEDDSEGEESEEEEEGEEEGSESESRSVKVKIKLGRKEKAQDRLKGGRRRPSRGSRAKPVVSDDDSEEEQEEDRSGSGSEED
# Procedure Details: SMARCA4 degradation assay (HiBiT-fusion HeLa cell line, 24 h, luminescence)
# Assay type: cell-based
# Settings: @ 1 μM

- Molecule: "Nc1nnc(-c2ccccc2O)cc1N1CC2CCC(C1)N2c1ccnc(C#CCCCNC(=O)c2cc3ncccn3n2)n1"
  inhibition at 1 µM: "< 30%"
- Molecule: "CC(C)(C)OC(=O)N1CCC(F)(C#Cc2nccc(N3CCCN(c4cc(-c5ccccc5O)nnc4N)CC3)n2)CC1"
  inhibition at 1 µM: "30 to 70%"
- Molecule: "C[C@@H]1CCN(c2cc(-c3ccccc3O)nnc2N)CCN1c1ccnc(C#CCN(C)C)n1"
  inhibition at 1 µM: "30 to 70%"
- Molecule: "C[C@@H]1CCN(c2cc(-c3ccccc3O)nnc2N)CCN1c1ccnc(C#CCN2CCOCC2)n1"
  inhibition at 1 µM: "< 30%"
- Molecule: "Nc1nnc(-c2ccccc2O)cc1N1C[C@H]2CN(c3ccnc(C#CCN4CC(F)(F)C4)n3)C[C@H]2C1"
  inhibition at 1 µM: "30 to 70%"
- Molecule: "Nc1nnc(-c2ccccc2O)cc1N1CC2CN(c3ccnc(C#CCNC(=O)c4cc5ncccn5n4)n3)CC21 (stereo not drawn)"
  inhibition at 1 µM: "< 30%"
- Molecule: "CC(=O)NCC#Cc1nccc(N2CCCN(c3cc(-c4ccccc4O)nnc3N)CC2)n1"
  inhibition at 1 µM: "< 30%"
- Molecule: "Nc1nnc(-c2ccccc2O)cc1N1CCN(c2ccnc(C#CCNC(=O)c3cc4ncccn4n3)n2)C2CC21 (stereo not drawn)"
  inhibition at 1 µM: "30 to 70%"
- Molecule: "CC(C)c1cc(C(C)C)n(CC#Cc2nccc(N3CCCN(c4cc(-c5ccccc5O)nnc4N)CC3)n2)n1"
  inhibition at 1 µM: "30 to 70%"
- Molecule: "Nc1nnc(-c2ccccc2O)cc1N1CCN(c2ccnc(C#CCNC(=O)c3cnn4cccnc34)n2)CC1"
  inhibition at 1 µM: "30 to 70%"
- Molecule: "COC[C@@H](C)NCC#Cc1nccc(N2CCCN(c3cc(-c4ccccc4O)nnc3N)CC2)n1"
  inhibition at 1 µM: "30 to 70%"
- Molecule: "Nc1nnc(-c2ccccc2O)cc1N1CCCN(c2ccnc(C#CC3CC3)n2)CC1"
  inhibition at 1 µM: "< 30%"
- Molecule: "CC(C#Cc1nccc(N2C3CCC2CN(c2cc(-c4ccccc4O)nnc2N)C3)n1)NC(=O)c1cc2ncccn2n1 (stereo not drawn)"
  inhibition at 1 µM: "30 to 70%"
- Molecule: "CC(=O)N(C)C/C=C/c1nccc(N2CCN(c3cc(-c4ccccc4O)nnc3N)CC[C@H]2C)n1"
  inhibition at 1 µM: "30 to 70%"
- Molecule: "CNCC#Cc1nccc(N2CCN(c3cc(-c4ccccc4O)nnc3N)CC[C@H]2C)n1"
  inhibition at 1 µM: "< 30%"

* * *

# Assay Target: SMARCA4-HiBiT HeLa cells (protein which is expressed from the SMARCA4 gene) (Homo sapiens)
# Construct: protein which is expressed from the SMARCA2 and SMARCA4 genes; host or cells: HeLa (SMARCA4-HiBiT engineered line)
# Procedure Details: SMARCA4 degradation assay (HiBiT-fusion HeLa cell line, 24 h, luminescence)
# Type: cell-based

- Molecule: "C[C@H]1CN(c2ccnc(C#CCNC(=O)c3cc4ncccn4n3)n2)CCN1c1cc(-c2ccccc2O)nnc1N"
  DC50: "50 to 500 nM"
- Molecule: "Nc1nnc(-c2ccccc2O)cc1N1CC2CCC(C1)N2c1ccnc(C#CCN2CC3CC2C3)n1"
  DC50: "< 50 nM"
- Molecule: "Nc1nnc(-c2ccccc2O)cc1N1CCCN(c2ccnc(C#CCN3C[C@H]4C[C@@H]3CO4)n2)CC1"
  DC50: "500 to 5000 nM"
- Molecule: "C[C@@H]1CCN(c2cc(-c3ccccc3O)nnc2N)CCN1c1ccnc(C#CCn2ccnc2)n1"
  DC50: "50 to 500 nM"
- Molecule: "CNCC#Cc1nccc(N2CCN(c3cc(-c4ccccc4O)nnc3N)CC2)n1"
  DC50: "< 50 nM"
- Molecule: "CC(C#Cc1nc(N2CCN(c3cc(-c4ccccc4O)nnc3N)CC[C@H]2C)ccc1C#N)N(C)C (stereo partly shown)"
  DC50: "< 50 nM"
- Molecule: "Nc1nnc(-c2ccccc2O)cc1N1C2CCC1CN(c1ccnc(C#CCNC(=O)c3cc4ncccn4n3)n1)C2"
  DC50: "50 to 500 nM"
